- TARGET SYSTEM: human GAL2 receptor (Homo sapiens, UniProt O43603)
- Construct: expressed in transfected cells
- Sequence (O43603 whole entry): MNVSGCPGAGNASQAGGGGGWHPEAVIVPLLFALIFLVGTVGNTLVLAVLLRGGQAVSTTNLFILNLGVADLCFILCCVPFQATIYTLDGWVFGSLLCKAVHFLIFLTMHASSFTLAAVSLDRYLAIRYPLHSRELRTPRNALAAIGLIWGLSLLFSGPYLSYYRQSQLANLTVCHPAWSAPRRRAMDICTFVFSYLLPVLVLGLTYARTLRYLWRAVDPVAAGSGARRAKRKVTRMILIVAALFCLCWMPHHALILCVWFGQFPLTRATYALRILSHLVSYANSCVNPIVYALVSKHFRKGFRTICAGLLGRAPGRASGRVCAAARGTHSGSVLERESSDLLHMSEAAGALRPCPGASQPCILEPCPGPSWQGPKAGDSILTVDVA
- TEST SUMMARY: Radioligand binding at cloned human GAL2 receptor
- SETUP CONDITIONS: pyrimidines, read-out: Ki GalR2
pKi: −log10 of the molar value.
Respond with Criterion met for pKi values of 6 and above, Criterion not met for values below.

| MOLECULE | TARGET SYSTEM | ASSIGNED CATEGORY |
| --- | --- | --- |
| Cc1ccc(Nc2cc(N3CCCCC3)nc(N3CCN(c4ncccc4C(F)(F)F)CC3)n2)cc1 | human GAL2 receptor (Homo sapiens, UniProt O43603) | Criterion met |
| Cc1ccc(Nc2cc(N(C)C)nc(N3CCOC(c4ccccc4)C3)n2)cc1 (stereo not drawn) | human GAL2 receptor (Homo sapiens, UniProt O43603) | Criterion not met |
| CN(C)c1cc(Nc2ccc(Cl)c(Cl)c2)nc(Nc2ccccc2)n1 | human GAL2 receptor (Homo sapiens, UniProt O43603) | Criterion not met |
| Cc1ccc(Nc2cc(N(C)C)nc(NCCc3c[nH]c4ccccc34)n2)cc1 | human GAL2 receptor (Homo sapiens, UniProt O43603) | Criterion not met |
| Cc1ccc(Nc2cc(N(C)C)nc(N3CCN(c4ccc(C)cc4)CC3)n2)cc1 | human GAL2 receptor (Homo sapiens, UniProt O43603) | Criterion not met |
| COCCN(c1nc(Nc2ccc(C)cc2)cc(N2CCCCC2)n1)C1CCCCC1 | human GAL2 receptor (Homo sapiens, UniProt O43603) | Criterion met |
| CC1CCC(Nc2cc(N(C)C)nc(Nc3ccccc3)n2)CC1 (stereo not drawn) | human GAL2 receptor (Homo sapiens, UniProt O43603) | Criterion not met |
| Cc1ccc(Nc2cc(N3CCCCC3)nc(NC(C)Cc3c[nH]c4ccccc34)n2)cc1 (stereo not drawn) | human GAL2 receptor (Homo sapiens, UniProt O43603) | Criterion not met |
| Cc1ccc(Nc2cc(N(C)C)nc(N3CCN(c4ccccc4C)CC3)n2)cc1 | human GAL2 receptor (Homo sapiens, UniProt O43603) | Criterion not met |
| Cc1ccc(Nc2cc(N3CCCCC3)nc(N(C)c3ccccc3)n2)cc1 | human GAL2 receptor (Homo sapiens, UniProt O43603) | Criterion not met |
| CN(CCc1c[nH]c2ccccc12)c1nc(Nc2ccc(F)c(F)c2)cc(N2CCCCC2)n1 | human GAL2 receptor (Homo sapiens, UniProt O43603) | Criterion met |
| CN(C)c1cc(NC2CCC(C(C)(C)C)CC2)nc(Nc2ccccc2)n1 (stereo not drawn) | human GAL2 receptor (Homo sapiens, UniProt O43603) | Criterion not met |
